Reported values: pKi for Furin (Homo sapiens), one per item.
Residues, ends and D or L forms follow the SMILES beside them.
A value of pKi is the negative decimal logarithm of a concentration given in moles per litre.

Recorded results for 3 compounds are shown here.
[[record]]
compound = "CC(C)[C@H](NC(=O)[C@H](CCCNC(=N)N)NCC(=O)Oc1ccccc1)C(=O)N[C@@H](CCCNC(=N)N)C(=O)NC1CCNCC1"
recorded_value = 5.01

[[record]]
compound = "CC(C)[C@H](NC(=O)[C@H](CCCN=C(N)N)NCC(=O)Oc1ccccc1)C(=O)N[C@@H](CCCN=C(N)N)C(=O)Nc1cccc(CN)c1"
recorded_value = 5.88

[[record]]
compound = "CCCCCCCCCC(=O)N[C@@H](CCCN=C(N)N)C(=O)N[C@H](C(=O)N[C@@H](CCCN=C(N)N)C(=O)Nc1ccc(C(=N)N)cc1)C(C)C"
recorded_value = 8.80


Turning now to a further compound:
Query: Please look up its pKi: CC(=O)N[C@@H](CC(C)C)C(=O)N[C@@H](Cc1ccc(O)cc1)C(=O)N[C@@H](CCCN=C(N)N)C(=O)N[C@H](C(=O)N[C@@H](CCCCN)C(=O)N[C@@H](CCCN=C(N)N)C(N)=O)C(C)C (Ac-LYRVKR-NH2)
Response: 5.47

---

Reported values: Ki for Furin (Homo sapiens), one per item.

[[record]]
molecule = "CC(=O)N[C@@H](CC(C)C)C(=O)N[C@@H](CC(C)C)C(=O)N[C@@H](CCCN=C(N)N)C(=O)N[C@H](C(=O)N[C@@H](CCCCN)C(=O)N[C@@H](CCCN=C(N)N)C(N)=O)C(C)C"
recorded_value = "1400 nM"


Query: Query the reported Ki for Furin (Homo sapiens); item: `CC(C)[C@H](NC(=O)[C@H](CCCN=C(N)N)NCC(=O)Oc1ccccc1)C(=O)N[C@@H](CCCN=C(N)N)C(=O)Nc1cccc(CN=C(N)N)c1`
Response: 2730 nM

Query: Query the reported Ki for Furin (Homo sapiens); item: `CC(C)C[C@H](NC(=O)[C@@H](N)CC(C)C)C(=O)N[C@@H](CCCNC(=N)N)C(=O)N[C@H](C(=O)N[C@@H](CCCCN)C(=O)N[C@@H](CCCNC(=N)N)C(=O)O)C(C)C`
Response: 420 nM

---

Reported values: log10 Ki for Furin (Homo sapiens, UniProt P09958), one per item.
Residues, ends and D or L forms follow the SMILES beside them.
Values below are the log10 of the recorded Ki, with nM as the unit.

Recorded results for 5 compounds are shown here.
[[record]]
compound = "CSCC[C@H](NC(=O)[C@H](CC(C)C)NC(C)=O)C(=O)N[C@@H](CCCNC(=N)N)C(=O)N[C@H](C(=O)N[C@@H](CCCCN)C(=O)N[C@@H](CCCNC(=N)N)C(N)=O)C(C)C (Ac-LMRVKR-NH2)"
recorded_value = 3.28

[[record]]
compound = "CC(C)[C@H](NC(=O)[C@H](CCCNC(=N)N)NCC(=O)Oc1ccccc1)C(=O)N[C@@H](CCCNC(=N)N)C(=O)NCCCCN"
recorded_value = 3.87

[[record]]
compound = "CC(=O)N[C@@H](CC(C)C)C(=O)N[C@@H](CCCCN)C(=O)N[C@@H](CCCN=C(N)N)C(=O)N[C@H](C(=O)N[C@@H](CCCCN)C(=O)N[C@@H](CCCN=C(N)N)C(N)=O)C(C)C (Ac-LKRVKR-NH2)"
recorded_value = 2.28

[[record]]
compound = "N=C(N)NCCC[C@H](NC(=O)[C@H](CCCNC(=N)N)NC(=O)[C@H](CCCNC(=N)N)NC(=O)[C@@H](N)CCCNC(=N)N)C(=O)O (H-RRRR-OH)"
recorded_value = 3.81

[[record]]
compound = "CC(C)[C@H](NC(=O)[C@H](CCCN=C(N)N)NCC(=O)Oc1ccccc1)C(=O)N[C@@H](CCCN=C(N)N)C(=O)NCCCCCN=C(N)N"
recorded_value = 3.03


Query: Please look up its log10 Ki: `CC(C)[C@H](NC(=O)[C@H](CCCN=C(N)N)NCC(=O)Oc1ccccc1)C(=O)N[C@@H](CCCN=C(N)N)C(=O)NCCCN`
Response: 3.48

Query: Please look up its log10 Ki: N=C(N)NCCC[C@H](NC(=O)[C@H](CCCNC(=N)N)NC(=O)[C@H](CCCNC(=N)N)NC(=O)[C@H](CCCNC(=N)N)NC(=O)[C@@H](N)CCCNC(=N)N)C(=O)O (H-RRRRR-OH)
Response: 3.00

Query: Please look up its log10 Ki: `CC(=O)N[C@@H](CCCNC(=N)N)C(=O)N[C@H](C(=O)N[C@@H](CCCNC(=N)N)C(=O)Nc1ccc(C(=N)N)cc1)C(C)C`
Response: 0.00

Taken from ChEMBL document CHEMBL2046329.
